- Target Or System: UniProt O43613
- Sequence (O43613 1-425): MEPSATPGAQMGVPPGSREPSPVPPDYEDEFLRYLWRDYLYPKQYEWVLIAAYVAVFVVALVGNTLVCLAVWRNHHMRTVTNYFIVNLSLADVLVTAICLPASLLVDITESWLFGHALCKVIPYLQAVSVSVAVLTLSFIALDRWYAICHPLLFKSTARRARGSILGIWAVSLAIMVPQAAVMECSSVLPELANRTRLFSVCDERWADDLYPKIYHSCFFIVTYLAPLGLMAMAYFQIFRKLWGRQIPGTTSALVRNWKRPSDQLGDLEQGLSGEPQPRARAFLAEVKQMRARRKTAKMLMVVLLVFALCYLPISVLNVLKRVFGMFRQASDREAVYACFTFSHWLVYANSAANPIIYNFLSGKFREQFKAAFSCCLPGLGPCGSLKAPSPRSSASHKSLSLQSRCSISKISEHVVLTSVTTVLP
- Assay Explanation: Measurement of orexin receptor-binding ability ([125I]-OX-A, cell membranes, OX1)
- Design: expressed in transfected cells; host or cells: CHO cells (membrane preparation)
- Measurement Parameters: membranes of recombinant CHO cells expressing OX1, 0.2 nM [125I]-OX-A; read-out: OX1 (IC50)
pIC50: −log10 of the molar value.
Rule: pIC50 of 7 or more gives 1.0; anything lower gives 0.0.

Reported pIC50 reaches at least 7 for COCc1nc(C)ncc1OC[C@@]1(c2ccccc2)C[C@H]1C(=O)Nc1ccc(C#N)cn1 [Example 140] ? 1.0

Reported pIC50 reaches at least 7 for Cc1ncc(OC[C@@]2(c3ccc(F)c(F)c3)C[C@H]2C(=O)Nc2ccc(F)cc2F)c(C)n1 [Example 171] ? 1.0

Reported pIC50 reaches at least 7 for Cc1ncc(NC[C@@]2(c3cccc(F)c3)C[C@H]2C(=O)Nc2ccc(F)cn2)c(C(F)(F)F)n1 [Example 302] ? 1.0

Reported pIC50 reaches at least 7 for Cc1ncc(OCC2(c3ccc(Cl)cc3)CC2C(=O)Nc2ccc(Cl)cn2)c(C)n1 (centres unmarked) [Example 158] ? 0.0

Reported pIC50 reaches at least 7 for COCc1nc(C)ncc1OC[C@@]1(c2ccc(F)cc2)C[C@H]1C(=O)Nc1ccc(F)cc1 [Example 203] ? 0.0

Reported pIC50 reaches at least 7 for Cc1ncc(OC[C@@]2(c3ccccc3)C[C@H]2C(=O)Nc2ccc(F)cc2)c(C)n1 [Example 77] ? 1.0

Reported pIC50 reaches at least 7 for Cc1ncc(OC[C@@]2(c3ccccc3)C[C@H]2C(=O)Nc2cc(F)nc(F)c2)c(C)n1 [Example 76-2] ? 0.0

====

- Target Or System: OX2 (Homo sapiens)
- Sequence (O43614 1-444): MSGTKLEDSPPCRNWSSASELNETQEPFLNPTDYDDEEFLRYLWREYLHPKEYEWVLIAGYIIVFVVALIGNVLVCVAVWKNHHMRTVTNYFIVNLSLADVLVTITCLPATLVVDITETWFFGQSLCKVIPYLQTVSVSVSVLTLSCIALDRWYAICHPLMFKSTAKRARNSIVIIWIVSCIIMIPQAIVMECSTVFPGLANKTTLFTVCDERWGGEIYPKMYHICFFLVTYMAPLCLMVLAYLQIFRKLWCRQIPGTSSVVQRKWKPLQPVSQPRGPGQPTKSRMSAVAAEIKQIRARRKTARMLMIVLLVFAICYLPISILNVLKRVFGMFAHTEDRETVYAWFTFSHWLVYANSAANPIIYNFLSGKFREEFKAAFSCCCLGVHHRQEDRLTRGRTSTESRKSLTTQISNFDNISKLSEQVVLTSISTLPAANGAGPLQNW
- Assay Explanation: Measurement of orexin receptor-binding ability ([125I]-OX-A, cell membranes, OX2)
- Parameters: expressed in transfected cells; host or cells: CHO cells (membrane preparation)
- Measurement Parameters: OX2 (IC50) nM, membranes of recombinant CHO cells expressing OX2, 0.2 nM [125I]-OX-A
Would you kindly list IC50 for each of these compounds?
Answer with a number only, understood to be in nM.

Sure, the documented IC50 for Cc1ncc(OC[C@@]2(c3cccc(F)c3)C[C@H]2C(=O)Nc2ccc(F)c(F)c2)c(C)n1 [Example 84] is 3

Sure, the documented IC50 for Cc1ncc(OC[C@@]2(c3cccc(F)c3)C[C@H]2C(=O)Nc2ccc(I)cn2)c(C)n1 [Example 280] is 21

Sure, the documented IC50 for Cc1ncc(OCC2(c3cccc(Cl)c3)CC2C(=O)Nc2ccc(Cl)cn2)c(C)n1 (stereo not shown) [Example 155] is 6

Sure, the documented IC50 for Cc1ncc(OC[C@@]2(c3cccc(F)c3)C[C@H]2C(=O)Nc2cc(C)c(F)cn2)c(C)n1 [Example 82] is 3.7

====

- Target Or System: UniProtKB O43614
- Assay Explanation: Measurement of orexin receptor-binding ability ([125I]-OX-A, cell membranes, OX2)
- Parameters: expressed in transfected cells; host or cells: CHO cells (membrane preparation)
- Measurement Parameters: membranes of recombinant CHO cells expressing OX2, 0.2 nM [125I]-OX-A; read-out: OX2 (IC50)
Quantity: pIC50
pIC50 here: minus log base 10 of the concentration, concentration in moles per litre.

Record Cc1ncc(OC[C@@]2(c3ccc(F)c(F)c3)C[C@H]2C(=O)Nc2cc(F)ccc2F)c(C)n1 [Example 172] / UniProtKB O43614, pIC50 recorded as 7.55

Record Cc1ncc(OC[C@@]2(c3ccccc3)C[C@H]2C(=O)Nc2ncc(C)s2)c(C)n1 [Example 2] / UniProtKB O43614, pIC50 recorded as 7.72

Record Cc1ncc(OC[C@@]2(c3ccccc3)C[C@H]2C(=O)Nc2ccc(F)nc2)c(C)n1 [Example 53] / UniProtKB O43614, pIC50 recorded as 7.74

Record COCc1nc(C)ncc1OC[C@@]1(c2ccc(F)c(F)c2)C[C@H]1C(=O)Nc1cc(C)c(F)cn1 [Example 212] / UniProtKB O43614, pIC50 recorded as 8.15

Record COCc1nc(C)ncc1OC[C@@]1(c2cc(F)cc(F)c2)C[C@H]1C(=O)Nc1ccccn1 [Example 218] / UniProtKB O43614, pIC50 recorded as 8.52

Record COCc1nc(C)ncc1OC[C@@]1(c2cc(F)cc(OC)c2)C[C@H]1C(=O)Nc1ccc(F)cn1 [Example 233] / UniProtKB O43614, pIC50 recorded as 8.22

Record COCc1nc(C)ncc1OC[C@@]1(c2ccccc2)C[C@H]1C(=O)Nc1nc(C)cs1 [Example 142] / UniProtKB O43614, pIC50 recorded as 7.44

Record COc1cccc(NC(=O)[C@@H]2C[C@@]2(COc2cnc(C)nc2C)c2ccccc2)n1 [Example 11] / UniProtKB O43614, pIC50 recorded as 7.28

Record COCc1nc(C)ncc1OC[C@@]1(c2cc(F)cc(OC)c2)C[C@H]1C(=O)Nc1ccc(F)c(F)c1 [Example 232] / UniProtKB O43614, pIC50 recorded as 8.52

Record CCc1nc(C)ncc1OC[C@@]1(c2ccccc2)C[C@H]1C(=O)Nc1cncc(OC)c1 [Example 317] / UniProtKB O43614, pIC50 recorded as 7.70

Record Cc1ncc(OCC2(c3ccc(Cl)cc3)CC2C(=O)Nc2ccc(Cl)cn2)c(C)n1 (stereo not shown) [Example 158] / UniProtKB O43614, pIC50 recorded as 7.57

Record COCc1nc(C)ncc1OC[C@@]1(c2cc(F)cc(F)c2)C[C@H]1C(=O)Nc1ccc(F)c(F)c1 [Example 221] / UniProtKB O43614, pIC50 recorded as 8.52

Record Cc1ncc(OC[C@@]2(c3cc(F)cc(F)c3)C[C@H]2C(=O)Nc2ccc(F)c(F)c2)c(C)n1 [Example 134] / UniProtKB O43614, pIC50 recorded as 8.40

Record COc1cc(NC(=O)[C@@H]2C[C@@]2(COc2cnc(C)nc2C)c2cc(F)cc(F)c2)ncc1F [Example 138] / UniProtKB O43614, pIC50 recorded as 8.62

Record COCc1nc(C)ncc1OC[C@@]1(c2cccc(F)c2)C[C@H]1C(=O)Nc1ccc(F)cc1 [Example 192] / UniProtKB O43614, pIC50 recorded as 8.30

Record Cc1ncc(OC[C@@]2(c3cccs3)C[C@H]2C(=O)Nc2ccc(Cl)cn2)c(C)n1 [Example 267] / UniProtKB O43614, pIC50 recorded as 7.19

====

- Target Or System: UniProt:O43613
- Assay Explanation: Measurement of antagonism (PLAP assay), OX1
- Type: cell-based
- Parameters: expressed in transfected cells; host or cells: HEK-293 cells, expression vector pBabeCLIH
- Measurement Parameters: HEK-293 cells expressing human OX1, 1 nM human OX-A, IC50 converted by Cheng-Prusoff equation; read-out: OX1 (Ki)
Rule for this label: t means Ki is less than 20 nM; f means Ki is at least 20 nM.

Would you kindly verify if Ki of Cc1ncc(OC[C@@]2(c3ccc(F)cc3)C[C@H]2C(=O)Nc2ccc(F)cn2)c(C)n1 is strictly less than 20 nM? f

Would you kindly verify if Ki of CCc1nc(C)ncc1OC[C@@]1(c2ccccc2)C[C@H]1C(=O)Nc1ccc(F)cn1 is strictly less than 20 nM? f

Would you kindly verify if Ki of COc1cccc([C@]2(COc3cnc(C)nc3C)C[C@H]2C(=O)Nc2ccc(F)cn2)c1 is strictly less than 20 nM? f

Would you kindly verify if Ki of Cc1ncc(OC[C@@]2(c3ccc(F)c(F)c3)C[C@H]2C(=O)Nc2cc(C)c(F)cn2)c(C)n1 is strictly less than 20 nM? t

Would you kindly verify if Ki of Cc1ncc(OC[C@@]2(c3ccccc3)C[C@H]2C(=O)Nc2cccnc2)c(C)n1 is strictly less than 20 nM? f

Would you kindly verify if Ki of Cc1ncc(OC[C@@]2(c3ccccc3)C[C@H]2C(=O)Nc2ccccn2)c(C)n1 is strictly less than 20 nM? f

Would you kindly verify if Ki of Cc1ncc(OC[C@@]2(c3ccccc3)C[C@H]2C(=O)Nc2cc(C)c(Cl)cn2)c(C)n1 is strictly less than 20 nM? t

Would you kindly verify if Ki of Cc1ncc(OC[C@@]2(c3cccc(F)c3)C[C@H]2C(=O)Nc2cc(C)c(F)cn2)c(C)n1 is strictly less than 20 nM? t
